Assay: in vitro
Details: human, HEK293T cells
readout.name: CC50

Would you please look over these solved cases?
O=S(=O)(c1cc(Cl)cc(Cl)c1)N1CCCC2=C[C@H]3C[C@H](CN4CCCC[C@H]34)[C@@H]21    > 200 µM
N#Cc1cccc(S(=O)(=O)N2CCCC3=C[C@H]4C[C@H](CN5CCCC[C@H]45)[C@@H]32)c1    > 200 µM
Clc1cc(Cl)cc(CCCN2CCCC3=C[C@H]4C[C@H](CN5CCCC[C@H]45)[C@@H]32)c1    25.9 µM
O=S(=O)(c1ccc(Cl)c(Cl)c1)N1CCCC2=C[C@H]3C[C@H](CN4CCCC[C@H]34)[C@@H]21    > 200 µM
O=C(c1cc(Cl)cc(Cl)c1)N1CCCC2=C[C@H]3C[C@H](CN4CCCC[C@H]34)[C@@H]21    > 200 µM
Cc1ccccc1CN1CCCC2=C[C@H]3C[C@H](CN4CCCC[C@H]34)[C@@H]21    162 µM
C1=C2CCCN[C@H]2[C@@H]2C[C@H]1[C@H]1CCCCN1C2    > 200 µM
COc1cccc(CN2CCCC3=C[C@H]4C[C@H](CN5CCCC[C@H]45)[C@@H]32)c1    > 200 µM
Clc1ccc(CN2CCCC3=C[C@H]4C[C@H](CN5CCCC[C@H]45)[C@@H]32)c(Cl)c1    > 200 µM
C1=C2CCCN(Cc3ccccc3)[C@H]2[C@@H]2C[C@H]1[C@H]1CCCCN1C2    168 µM

Note down CC50 recorded for O=C(c1ccc(Cl)cc1)N1CCCC2=C[C@H]3C[C@H](CN4CCCC[C@H]34)[C@@H]21 > 200 µM

Given O=C(c1ccc(Cl)c(Cl)c1)N1CCCC2=C[C@H]3C[C@H](CN4CCCC[C@H]34)[C@@H]21 , respond with its CC50. 200 µM

In one line, give reported CC50 of the entry Clc1ccc(CCCN2CCCC3=C[C@H]4C[C@H](CN5CCCC[C@H]45)[C@@H]32)cc1Cl . 29.3 µM

Identify CC50 associated with the molecule Clc1ccc(CN2CCCC3=C[C@H]4C[C@H](CN5CCCC[C@H]45)[C@@H]32)cc1 > 200 µM

Please indicate CC50 recorded for Clc1cc(Cl)cc(CN2CCCC3=C[C@H]4C[C@H](CN5CCCC[C@H]45)[C@@H]32)c1 83.5 µM

* * *

Assay: Toxicity in iv dosed Kunming mouse administered as single dose measured for 7 days
Format: organism-based
Details: in vivo
readout.name: LD50 at 168 h (mg/kg)
# unit: mg/kg | format: bare number

Specify measured LD50 at 168 h for Clc1ccc(CN2CCCC3=C[C@H]4C[C@H](CN5CCCC[C@H]45)[C@@H]32)cc1Cl . 28.3

* * *

Each entry below carries its recorded selectivity ratio.
Experiment: in vitro
Conditions: human, HEK293T cells

Please review the entries below; each comes with its answer.
Clc1ccc(CN2CCCC3=C[C@H]4C[C@H](CN5CCCC[C@H]45)[C@@H]32)c(Cl)c1    > 31.2
O=S(=O)(c1ccc(Cl)cc1)N1CCCC2=C[C@H]3C[C@H](CN4CCCC[C@H]34)[C@@H]21    > 10.6
Fc1ccc(CN2CCCC3=C[C@H]4C[C@H](CN5CCCC[C@H]45)[C@@H]32)cc1    > 9.3
Cc1ccccc1CN1CCCC2=C[C@H]3C[C@H](CN4CCCC[C@H]34)[C@@H]21    10.8

Report measured selectivity ratio; entry is COc1cccc(CN2CCCC3=C[C@H]4C[C@H](CN5CCCC[C@H]45)[C@@H]32)c1 > 11.2

Give a short answer stating reported selectivity ratio for N#Cc1cccc(S(=O)(=O)N2CCCC3=C[C@H]4C[C@H](CN5CCCC[C@H]45)[C@@H]32)c1 . > 2.8

Please indicate selectivity ratio recorded for O=S(=O)(c1cccs1)N1CCCC2=C[C@H]3C[C@H](CN4CCCC[C@H]34)[C@@H]21 > 3.2

* * *

Test system: Ebolavirus
Assay: microbe, parasite or virus in culture
Assay type: functional, cell-based
Details: Orthoebolavirus, HEK-293T
Each entry below carries its reported EC50.
Write it as a number; the unit µM goes unstated.

Sample records with EC50:
FC(F)(F)Oc1ccc(CN2CCCC3=C[C@H]4C[C@H](CN5CCCC[C@H]45)[C@@H]32)cc1    10.4
O=C(c1ccc(Cl)cc1)N1CCCC2=C[C@H]3C[C@H](CN4CCCC[C@H]34)[C@@H]21    34.1
COc1cccc(CN2CCCC3=C[C@H]4C[C@H](CN5CCCC[C@H]45)[C@@H]32)c1    12.1
Clc1ccc(CCN2CCCC3=C[C@H]4C[C@H](CN5CCCC[C@H]45)[C@@H]32)cc1Cl    6.8
Clc1ccc(CN2CCCC3=C[C@H]4C[C@H](CN5CCCC[C@H]45)[C@@H]32)c(Cl)c1    6.6

Give the reported value of EC50 for this record: C1=C2CCCN[C@H]2[C@@H]2C[C@H]1[C@H]1CCCCN1C2 12.4

Hello, please tell me recorded EC50 for this one: Clc1cc(Cl)cc(CCCN2CCCC3=C[C@H]4C[C@H](CN5CCCC[C@H]45)[C@@H]32)c1 6.1

Note down EC50 recorded for Clc1ccc(CCCN2CCCC3=C[C@H]4C[C@H](CN5CCCC[C@H]45)[C@@H]32)cc1 7.1

Name the recorded EC50 of the compound listed here: Clc1ccc(CCCN2CCCC3=C[C@H]4C[C@H](CN5CCCC[C@H]45)[C@@H]32)cc1Cl 5.8

Report EC50, nothing else, for this compound: O=S(=O)(c1ccc(Cl)cc1)N1CCCC2=C[C@H]3C[C@H](CN4CCCC[C@H]34)[C@@H]21 21.8

* * *

Assay: MRT in BALB/c mouse at 25 mg/kg, po
Assay type: ADME, organism-based
Conditions: in vivo
readout.name: MRT (h)
Kindly provide the numeric value in h only, without the unit symbol.

Indicate its recorded MRT; the compound in question is Clc1ccc(CN2CCCC3=C[C@H]4C[C@H](CN5CCCC[C@H]45)[C@@H]32)cc1Cl 4.89

* * *

Experiment: in vitro
Details: human, HEK293T cells
readout.name: selectivity ratio
Give a plain numeric answer without units written out.

Consider the worked cases shown below.
Cc1ccccc1CN1CCCC2=C[C@H]3C[C@H](CN4CCCC[C@H]34)[C@@H]21    9.7
Clc1ccc(CCN2CCCC3=C[C@H]4C[C@H](CN5CCCC[C@H]45)[C@@H]32)cc1    13.9
Clc1cc(Cl)cc(CCCN2CCCC3=C[C@H]4C[C@H](CN5CCCC[C@H]45)[C@@H]32)c1    4.2

Kindly review the next compound as well.
For the compound Clc1cc(Cl)cc(CN2CCCC3=C[C@H]4C[C@H](CN5CCCC[C@H]45)[C@@H]32)c1 , give its measured selectivity ratio value. 10.3

* * *

Measured CC50 values are reported for all entries that follow.
Assay: in vitro
Details: human, HEK293T cells
Respond with the bare value in µM.

Clc1ccc(CCN2CCCC3=C[C@H]4C[C@H](CN5CCCC[C@H]45)[C@@H]32)cc1Cl    51.5
Clc1ccc(CCCN2CCCC3=C[C@H]4C[C@H](CN5CCCC[C@H]45)[C@@H]32)cc1    74.1
Clc1ccc(CCN2CCCC3=C[C@H]4C[C@H](CN5CCCC[C@H]45)[C@@H]32)cc1    83.3

Read the entry Clc1cc(Cl)cc(CCN2CCCC3=C[C@H]4C[C@H](CN5CCCC[C@H]45)[C@@H]32)c1 and write its reported CC50. 56

Tell me CC50 reported for FC(F)(F)Oc1ccc(CN2CCCC3=C[C@H]4C[C@H](CN5CCCC[C@H]45)[C@@H]32)cc1 82

* * *

Collected selectivity ratio values appear next to each entry.
Assay: in vitro
Settings: human, HEK293T cells
// print number alone

As a guide, the following entries are already answered.
Clc1ccc(CCN2CCCC3=C[C@H]4C[C@H](CN5CCCC[C@H]45)[C@@H]32)cc1Cl    7.6
O=C(c1ccc(Cl)c(Cl)c1)N1CCCC2=C[C@H]3C[C@H](CN4CCCC[C@H]34)[C@@H]21    4.1
Clc1cc(Cl)cc(CCN2CCCC3=C[C@H]4C[C@H](CN5CCCC[C@H]45)[C@@H]32)c1    9.8

API: the following record is the query input.
// fetch selectivity ratio given entry Clc1ccc(CCCN2CCCC3=C[C@H]4C[C@H](CN5CCCC[C@H]45)[C@@H]32)cc1 10.4

* * *

Assay: Toxicity in ip dosed Kunming mouse administered as single dose measured for 7 days
Assay type: organism-based
Details: in vivo
readout.name: LD50 at 168 h

Return the recorded LD50 at 168 h value; entry: Clc1ccc(CN2CCCC3=C[C@H]4C[C@H](CN5CCCC[C@H]45)[C@@H]32)cc1Cl > 100 mg/kg
